src = ChEMBL document CHEMBL1143013

molecular target: GABA-A receptor; alpha-1/beta-3/gamma-2 (Homo sapiens, UniProt P14867+P18507+P28472); test: Antagonist activity at human GABAA alpha-1-beta-3-gamma-2S expressed in Xenopus oocytes by two-electrode voltage-clamp electrophysiology; assay type: functional, cell-based, Oocyte; settings: read-out: Ki
Sequence (P14867 whole entry): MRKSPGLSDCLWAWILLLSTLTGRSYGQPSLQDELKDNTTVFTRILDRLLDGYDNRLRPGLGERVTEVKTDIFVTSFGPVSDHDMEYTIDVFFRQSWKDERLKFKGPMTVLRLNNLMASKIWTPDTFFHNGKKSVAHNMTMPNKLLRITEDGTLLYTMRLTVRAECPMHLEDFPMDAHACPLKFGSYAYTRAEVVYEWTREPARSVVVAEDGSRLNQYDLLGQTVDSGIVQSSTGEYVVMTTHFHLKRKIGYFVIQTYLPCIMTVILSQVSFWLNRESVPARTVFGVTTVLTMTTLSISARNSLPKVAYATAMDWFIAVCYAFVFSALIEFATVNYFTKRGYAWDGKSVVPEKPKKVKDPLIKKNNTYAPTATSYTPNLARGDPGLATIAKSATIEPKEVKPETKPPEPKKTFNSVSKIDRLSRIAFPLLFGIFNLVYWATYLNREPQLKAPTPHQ
Sequence (P18507 whole entry): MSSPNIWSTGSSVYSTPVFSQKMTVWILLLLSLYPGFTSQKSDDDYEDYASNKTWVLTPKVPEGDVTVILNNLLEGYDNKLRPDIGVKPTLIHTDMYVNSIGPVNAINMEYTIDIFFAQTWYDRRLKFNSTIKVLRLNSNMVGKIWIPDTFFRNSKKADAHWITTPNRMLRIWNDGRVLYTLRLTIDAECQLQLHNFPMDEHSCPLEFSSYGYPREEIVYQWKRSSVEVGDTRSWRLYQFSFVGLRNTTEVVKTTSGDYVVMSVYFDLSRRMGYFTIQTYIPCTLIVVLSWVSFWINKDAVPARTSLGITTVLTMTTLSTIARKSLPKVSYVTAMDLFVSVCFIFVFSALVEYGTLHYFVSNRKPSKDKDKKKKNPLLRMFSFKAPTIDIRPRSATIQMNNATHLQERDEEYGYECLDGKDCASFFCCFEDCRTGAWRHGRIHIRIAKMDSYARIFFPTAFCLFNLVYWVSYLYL
Sequence (P28472 whole entry): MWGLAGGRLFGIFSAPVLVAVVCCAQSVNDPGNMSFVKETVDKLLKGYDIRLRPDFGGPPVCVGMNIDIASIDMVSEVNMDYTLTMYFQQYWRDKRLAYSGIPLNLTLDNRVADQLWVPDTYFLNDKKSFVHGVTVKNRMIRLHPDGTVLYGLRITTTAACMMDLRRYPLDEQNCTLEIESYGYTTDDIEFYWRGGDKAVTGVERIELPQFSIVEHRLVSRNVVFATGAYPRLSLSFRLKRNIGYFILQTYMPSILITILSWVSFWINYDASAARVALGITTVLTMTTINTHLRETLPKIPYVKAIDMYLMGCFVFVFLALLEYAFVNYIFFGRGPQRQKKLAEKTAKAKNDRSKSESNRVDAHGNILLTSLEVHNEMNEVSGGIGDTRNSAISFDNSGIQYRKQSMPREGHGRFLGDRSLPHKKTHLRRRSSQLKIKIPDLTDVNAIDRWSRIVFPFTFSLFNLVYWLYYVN
Field: Ki. Provide a value for each of the compounds that follow.
Please reply with the bare figure in nM and do not write the unit itself.

Ki reported for this compound Br.Oc1noc(C2CCNCC2)c1-c1ccsc1 : 76

Ki reported for this compound Oc1noc(C2CCNCC2)c1-c1ccc2ccccc2c1 : 141

Ki reported for this compound Br.Oc1noc(C2CCNCC2)c1-c1cc(Cl)cc(Cl)c1 : 68

---

test: Displacement of [3H]muscimol from GABAA receptor in Sprague-Dawley rat brain synaptic membrane
pKi: −log10 of the molar value.
Short version: pKi at least 7 is True, less is False.

Qu. # bool: pKi of Br.Oc1noc(C2CCNCC2)c1-c1csc(-c2ccccc2)c1 >= 7
Ans. True

Qu. # bool: pKi of Oc1noc(C2CCNCC2)c1Cc1ccc2ccccc2c1 >= 7
Ans. True

Qu. # bool: pKi of Oc1noc(C2CCNCC2)c1-c1cccc2ccccc12 >= 7
Ans. False

Qu. # bool: pKi of Oc1noc(C2CCNCC2)c1-c1ccc2ccccc2c1 >= 7
Ans. True

Qu. # bool: pKi of Oc1noc(C2CCNCC2)c1-c1ccccc1 >= 7
Ans. False
